# System: MDA-MB-231
# Assay Details: NCI tumour cell line growth inhibition, 48 h
Activity calls are given as the source filed them. Rule as the data show it: active = GI50 up to about 1.1 µM and inactive = higher.
Your answer must be one of the following: active, inactive

The following molecules have reported results that may help.
Molecule: O=C1C(Br)=C(C2=CC(=P(c3ccccc3)(c3ccccc3)c3ccccc3)C=C2)C(=O)C(Br)=C1C1=CC(=P(c2ccccc2)(c2ccccc2)c2ccccc2)C=C1
Discrete Label: inactive
//
Molecule: COc1ccc(C(O)c2ccc3c(c2)OCO3)cc1 (stereo not drawn)
Discrete Label: inactive
//
Molecule: O=C(O)/C=C\C(=O)Nn1c(Cc2ccc(Cl)cc2)n[nH]c1=O
Discrete Label: inactive
//
Molecule: NNC(=O)c1nnn(CCc2ccccc2)c1C(=O)NN
Discrete Label: inactive
//
Molecule: COc1ccc(NC(=O)/C(=N\NC(=O)C[n+]2ccccc2)c2c(O)c3ccc(O)cc3oc2=O)c([N+](=O)[O-])c1
Discrete Label: inactive

Recorded test outcome, item `O=[N+]([O-])c1ccc(/C=N/n2c(S)nnc2CCc2nnc(S)n2/N=C/c2ccc([N+](=O)[O-])o2)o1`
inactive

Would you kindly repeat that for CC(C)=CCC/C(C)=C/CCC(C(=O)COCc1ccccc1)P1(=O)OC(C)(C)CN1C(C)(C)C (stereo not drawn) ?
inactive

Would you kindly repeat that for C/C=C(\C)c1cc(=O)c2c(C)cc3c(c2o1)C(OC)(OC(C)=O)c1c(O)c(C2CC(C)(N(C)C)C(OC(C)=O)C(C)O2)cc(C2CC(N(C)C)C(OC(C)=O)C(C)O2)c1C3=O (stereo not drawn) ?
active

* * *

# Tested on: CCRF-CEM
# Assay Details: NCI tumour cell line growth inhibition, 48 h
Activity calls are given as the source filed them. No stated cut-off is given here; in the data, active = GI50 up to about 1.1 µM and inactive = higher.
Your answer must be one of the following: Yes (active), No (inactive)

The following compounds have reported results that may help.
Compound: CC1(CO)OC1COCc1ccccc1 (stereo not drawn)
Discrete Label: No

Compound: COc1cc(/C=N\c2nc(-c3ccc(NS(=O)(=O)c4ccc(Cl)c(OC)c4)cc3)cs2)ccc1O
Discrete Label: No

Compound: CC1(C)CC(=O)c2c(oc3cc(O)c(O)cc23)C1
Discrete Label: No

Compound: CCc1ccc2oc(=O)ccc2c1
Discrete Label: No

Compound: O=C1OC(O)C(Oc2c(Cl)cccc2Cl)=C1Cl (stereo not drawn)
Discrete Label: No

Compound: Fc1ccc(C(OCCN2CCC3CCC(C2)N3Cc2cc3ccccc3[nH]2)c2ccc(F)cc2)cc1 (stereo not drawn)
Discrete Label: No

Compound: O=C(CCc1ccccc1)On1c(-c2ccccc2)nc2ccccc2c1=S
Discrete Label: No

Compound: Oc1ncc(Cl)c(O)n1
Discrete Label: No

Compound: COC(=O)[C@@H]1O[C@]12C(CO[Si](C)(C)C(C)(C)C)OC(n1ccc(=O)[nH]c1=O)C2O[Si](C)(C)C(C)(C)C (stereo partly drawn)
Discrete Label: No

Compound: Nc1nc(N)c2ncn(CCCC(c3ccccc3)P(=O)(O)O)c2n1 (stereo not drawn)
Discrete Label: No

Recorded test outcome, item C[C@H](CCC(=O)O[C@@H]1CC[C@@]2(C)C(CC[C@H]3[C@@H]4CC[C@H]([C@H](C)CCc5nc6ccccc6[nH]5)[C@@]4(C)CC[C@@H]32)C1)[C@H]1CC[C@H]2[C@@H]3CCC4C[C@H](O)CC[C@]4(C)[C@H]3CC[C@]12C (stereo partly drawn)
No

Would you kindly repeat that for `Cc1nc(-c2cccnc2)sc1C(=O)CC(=O)C(=O)Nc1cccc(NC(=O)C(=O)CC(=O)c2sc(-c3cccnc3)nc2C)n1` ?
No

Would you kindly repeat that for `CC1(C)CCC(C)(C)c2c1ccc(O)c2Cc1c(O)ccc2c1C(C)(C)CCC2(C)C` ?
No

Would you kindly repeat that for Nc1ncnc2c1N=C(c1ccccc1)CC(c1ccccc1)N2 (stereo not drawn) ?
No

Would you kindly repeat that for `COC1=CC(=Nc2c(Cl)cc(Cl)cc2OC(=O)c2ccc([N+](=O)[O-])cc2)C=C(OC)C1=O` ?
No

Would you kindly repeat that for CC(NCCS(=O)(=O)O)C(=O)O (stereo not drawn) ?
No

Would you kindly repeat that for `O=C1CCCCC[C@]12SC[C@H]1CON=C12` ?
No

Would you kindly repeat that for `CN(C)CCNC(=O)c1cccc2[nH]c(-c3ccc(Cl)cc3)nc12` ?
No

* * *

# Tested on: Hs-578T
# Assay Details: NCI tumour cell line growth inhibition, 48 h
Activity calls are given as the source filed them. No stated cut-off is given here; in the data, active = GI50 up to about 1.1 µM and inactive = higher.
Your answer must be one of the following: active, inactive

The following compounds have reported results that may help.
Compound: Cc1cc(=O)nc(Sc2ccc([N+](=O)[O-])cc2[N+](=O)[O-])[nH]1
Discrete Label: inactive
//
Compound: CN(Nc1cc(=O)[nH]c(=O)[nH]1)c1ccccc1
Discrete Label: inactive
//
Compound: CN1c2ccccc2C(=O)NC12CCN(CC1COc3ccccc3O1)CC2 (stereo not given)
Discrete Label: inactive
//
Compound: CCOC(=O)Nc1ccc(C)c(NC(=O)OCC)c1
Discrete Label: inactive
//
Compound: Oc1ncc(Cl)c(O)n1
Discrete Label: inactive
//
Compound: COc1ccc(/N=N/C(=O)NC(Cc2ccccc2)C(=O)O)cc1 (stereo not given)
Discrete Label: inactive
//
Compound: O=C(O)c1ccccc1/N=N\c1c(O)c(S(=O)(=O)O)cc2cc(S(=O)(=O)O)ccc12
Discrete Label: inactive
//
Compound: COC(=O)c1c(O)ccc2c1c1c(n2Cc2cccc(C)c2)C(=O)c2ccccc2C1
Discrete Label: inactive

Recorded test outcome, item `CN(c1ccc(Cl)cc1)S(=O)(=O)c1cccc([N+](=O)[O-])c1`
inactive

Would you kindly repeat that for `N#Cc1[nH]c(=O)n(-c2ccc(Cl)cc2)c1N` ?
inactive

Would you kindly repeat that for COC(=O)C(Cc1ccc(Oc2cc(CC(NC(=O)c3ccccc3)C(=O)OC)ccc2OC)cc1)NC(=O)c1ccccc1 (stereo not given) ?
inactive

Would you kindly repeat that for `O=C(NCCO)c1ccc(Cl)cc1` ?
inactive

Would you kindly repeat that for C=C1[C@@H]2CCC3[C@]4(C)C(CC[C@@]5(C)C(=O)O[C@H](O)[C@@H]45)[C@H](O)[C@]3(C2)[C@H]1OC1OC(CO)C(O)C(O)C1O (stereo not given in full) ?
inactive

Would you kindly repeat that for `Cc1cc(-c2c(F)cc3c4nn([C@H]5CC[C@@H](N(C)C)CC5)c(=O)c-4cn(C4CC4)c3c2F)cc(C)n1` ?
active

Would you kindly repeat that for `CC(C)(C)n1c(=O)n(-c2ccccc2)n(C(C)(C)C)c1=O` ?
inactive

Would you kindly repeat that for `Cc1nc(-c2cccnc2)sc1C(=O)CC(=O)C(=O)Nc1cccc(NC(=O)C(=O)CC(=O)c2sc(-c3cccnc3)nc2C)n1` ?
inactive

Would you kindly repeat that for Cc1cc2c(cc1N)C(C)C1(CCC(=O)N2Cc2ccccc2)OCCO1 (stereo not given) ?
inactive

Would you kindly repeat that for CC(C)=CCCC(C)C1=C(O)C(=O)C(C)=CC1=O (stereo not given) ?
inactive

Would you kindly repeat that for `Cc1nnc(S(=O)(=O)c2ccc(/N=N/c3c(N)nc(N)nc3N)cc2)s1` ?
inactive

Would you kindly repeat that for CC(=O)OCC(C)C1=C(OC(C)=O)C(=O)C2(C)C/C=C(/C)CC/C=C(\C)CCC(OC(C)=O)C(C)CCC12 (stereo not given) ?
inactive

* * *

# Tested on: K562
# Assay Details: NCI tumour cell line growth inhibition, 48 h
Active and inactive are the calls of the source. Cut-off read from the data, not from the text of the source: active = GI50 up to about 1.1 µM and inactive = higher.
Value Type: GI50

Compound: Cc1cccc2nc3c(C(=O)NCCN(C)C)cccc3cc12
Data Value: 1.8 µM (inactive)
--
Compound: CCOC(=O)CC1(O)CCCCC1(Sc1ccc(C)cc1)Sc1ccc(C)cc1 (stereo unspecified)
Data Value: 41.5 µM (inactive)

# evaluate next
GI50 of `COC(=O)c1c(O)ccc2c1c1c(n2Cc2cccc(C)c2)C(=O)c2ccccc2C1=O` on K562?
8.91 µM (inactive)

* * *

Listing: GI50 of selected compounds
# Test system: SF-539
# Assay Details: NCI tumour cell line growth inhibition, 48 h
The source made the active and inactive calls. Cut-off read from the data, not from the text of the source: active = GI50 up to about 1.1 µM and inactive = higher.

Compound: CC1(C)CCCCCC(O)C(O)CCC(C)(C)C1=O (stereo unspecified)
GI50: > 100 µM (inactive)

Tell me the measured GI50 of CCC12CCCN3CCc4c(n(c5ccccc45)C(O)(C(=O)OC)C1)C32 (stereo unspecified) , please.
> 100 µM (inactive)

Would you kindly repeat that for `Clc1nc(Cl)nc(Nc2cccc3ccccc23)n1` ?
> 10 µM (inactive)

Would you kindly repeat that for `c1sc(NC2=NCCO2)c2c1CCCC2` ?
> 100 µM (inactive)

Would you kindly repeat that for `NCCC1(N)CCNCC1` ?
> 100 µM (inactive)

Would you kindly repeat that for CCOC(=O)C1=C(C)N(NC(N)=O)C2(N)N(NC(N)=O)C(C)=C(C(=O)OCC)C12C(=O)OCC (stereo unspecified) ?
> 100 µM (inactive)

* * *

Listing: GI50 of selected molecules
# Tested on: SF-295
# Assay Details: NCI tumour cell line growth inhibition, 48 h
Activity calls are given as the source filed them. Cut-off read from the data, not from the text of the source: active = GI50 up to about 1.1 µM and inactive = higher.

Tell me the measured GI50 of CC(C)C12C=CC(C)(CC1)n1c(=O)c3cc4ccccc4cc3c(=O)n12 (stereo unspecified) , please.
73.5 µM (inactive)

Would you kindly repeat that for CCOC(=O)CC1(O)CCCCC1(Sc1ccc(C)cc1)Sc1ccc(C)cc1 (stereo unspecified) ?
41 µM (inactive)

Would you kindly repeat that for N#Cc1ccccc1NC(=O)C(=O)C1NC(=S)NC1=O (stereo unspecified) ?
> 100 µM (inactive)

Would you kindly repeat that for Cc1cc(Cl)ccc1NC1=NC(=O)C(CC(=O)Nc2cccc(Cl)c2)S1 (stereo unspecified) ?
18.5 µM (inactive)

Would you kindly repeat that for `COc1cc(-c2cccs2)sc1-c1cccs1` ?
23.3 µM (inactive)

Would you kindly repeat that for CC(C)=C1CCC(CN2CCOCC2)C1=O (stereo unspecified) ?
98.4 µM (inactive)
